FITC+/Alexa 647+ cell rate ratio for assorted binders
system: T1, Mutant 4 of human SPNS2 (FLAG tag inserted in extracellular loop 11) (human, UniProt Q8IVW8 1-549)
T1 construct: on HEK293 cells; also called extracellular loop 11 mutant
T1 sequence: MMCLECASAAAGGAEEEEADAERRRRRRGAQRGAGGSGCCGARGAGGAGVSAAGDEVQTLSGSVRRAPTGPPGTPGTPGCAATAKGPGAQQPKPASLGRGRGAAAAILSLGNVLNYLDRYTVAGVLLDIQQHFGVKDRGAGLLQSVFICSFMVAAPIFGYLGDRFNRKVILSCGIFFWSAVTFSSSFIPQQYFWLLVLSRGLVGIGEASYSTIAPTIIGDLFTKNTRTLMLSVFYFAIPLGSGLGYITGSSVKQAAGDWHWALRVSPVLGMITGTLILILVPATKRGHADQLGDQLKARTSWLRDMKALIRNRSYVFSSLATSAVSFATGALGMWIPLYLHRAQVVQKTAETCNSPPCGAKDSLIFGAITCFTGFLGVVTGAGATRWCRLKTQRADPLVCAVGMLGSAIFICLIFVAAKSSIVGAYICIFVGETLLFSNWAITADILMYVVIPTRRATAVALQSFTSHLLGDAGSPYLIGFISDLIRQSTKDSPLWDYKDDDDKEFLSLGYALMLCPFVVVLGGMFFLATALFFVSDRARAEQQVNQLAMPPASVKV
assay.details: flow cytometry, FLAG-insertion mutant

binder	measurement
53-0707E (antibody, IgG2b, V domains shown) VH: EVQLQQSGAELVRPRTSVKLSCKVSGDSITRYYVHFVKQRPGQGLEWIGRIDPEDDTTKYSEKFKKKATLTADASSNTAYLIFSGLTSEDTATYFCSTLTGLDYWGQGVMVTVSS VL: DIQMTQSPPVLSTSVGDRVTLRCKASQNVHSKLDWYQQKHGEAPKLLIYYTHNLQTGIPSRFSGSGSGTDYTLTISSLQPEDVATYYCFQYYSGWTFGGGTKLEMKR	≥ 0.5 ratio

*Q* Find the recorded FITC+/Alexa 647+ cell rate ratio belonging to 50-0704C (antibody, IgG2b, V domains shown) VH: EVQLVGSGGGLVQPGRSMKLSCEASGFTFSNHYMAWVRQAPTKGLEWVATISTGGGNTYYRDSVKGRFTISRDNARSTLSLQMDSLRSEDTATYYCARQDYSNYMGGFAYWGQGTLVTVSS VL: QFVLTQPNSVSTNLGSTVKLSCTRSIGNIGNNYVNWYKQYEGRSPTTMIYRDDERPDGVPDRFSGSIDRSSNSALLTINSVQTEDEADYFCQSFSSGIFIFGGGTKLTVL and report it.
*A* ≥ 0.5 ratio

*Q* So what does the record say about FITC+/Alexa 647+ cell rate ratio for 93-1310F (antibody, IgG2b, V domains shown) VH: EVQLVETGGGLVQPGSSLKLSCATSGFTFSDTWMSWVRQAPGKGLEWVALIKDKNSNYEANYAESVKGRFTISRDDSKRRVYLQMFTLRDQDTATYYCTSHEDFYYYSSYYFDYWGHGVMVTVSS VL: DIVLTQSPATLSVTPGESVSLSCRASQGISTSIHWYQQKSNGSPRLLIKYASQSISGIPSRFSGSGSGTDFTLRINRVESEDFSVYYCQQTYSLPLTFGSGTRLEIKR ?
*A* ≥ 0.5 ratio
